Tested on: NDR2
Details: concentration: 1 μM, replicates: in singlicate; n = 1;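 further: KINOMEscan kinase panel screen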
Labelling field: enter Y if recorded %Inh is less than 40%. Enter N if it equals or exceeds that cut-off.

{"Compound": "COc1cc2c(cc1OCCN1CCN(C)CC1)ncc1c3ccc(C#N)cc3[nH]c21", "Target under test": "NDR2", "Label": "Y"}
{"Compound": "COc1ccc(Nc2nccc(N3CCC(NC(=O)Nc4cc(C)ccc4C)C3)n2)cc1 (stereo not drawn)", "Target under test": "NDR2", "Label": "Y"}
{"Compound": "O=C(NCCNc1ccnc(Nc2ccc(F)cc2)n1)c1cc2ccccc2s1", "Target under test": "NDR2", "Label": "Y"}
{"Compound": "O=C1NC(=O)C(N2CCc3ccccc32)=C1c1cccc(Cl)c1", "Target under test": "NDR2", "Label": "Y"}
{"Compound": "Cc1cn2c(=O)cc(N3CCOCC3)nc2n1Cc1cccc(Cl)c1Cl", "Target under test": "NDR2", "Label": "Y"}
{"Compound": "COc1ccc(Nc2ncc(C#N)c(Nc3ccccc3C(N)=O)n2)cc1N1CCN(C)CC1.Cl", "Target under test": "NDR2", "Label": "N"}
{"Compound": "CNc1ncnc2[nH]ncc12", "Target under test": "NDR2", "Label": "Y"}
{"Compound": "CC(C)Oc1ccc2c(-c3ccnc(Nc4ccc(N5CCN(C)CC5)cc4)n3)cnn2n1", "Target under test": "NDR2", "Label": "N"}

###

Test system: PAK1
Conditions: concentration: 1 μM, replicates: in singlicate; n = 1
Endpoint: %Inh

{"Compound": "O=C1NC(=O)C(N2CCc3ccccc32)=C1c1cccc(Cl)c1 [SB-408010]", "Val": "9%"}
{"Compound": "CCc1ccnc(/C=C/c2n[nH]c3cc(Sc4ccccc4C(=O)NC)ccc23)c1", "Val": "0%"}
{"Compound": "COc1cc(Nc2nccc(N3CCC(NC(=O)c4cccc(NC(C)=O)c4)C3)n2)cc(OC)c1OC (centres unmarked) [GSK1379754]", "Val": "20%"}
{"Compound": "Cc1nnc(-c2ccc(C)c(-c3ccc(C(=O)Nc4ccc(NS(C)(=O)=O)cc4)cc3)c2)o1 [GW702865]", "Val": "10%"}
{"Compound": "C[C@@H](Oc1cc(-n2cnc3ccc(NC(=O)NC(C)(C)C)cc32)sc1C(N)=O)c1ccccc1Cl [GSK346294]", "Val": "15%"}
{"Compound": "N#Cc1c(N2CCOCC2)sc(-c2ccn[nH]2)c1-c1ccc(Cl)cc1", "Val": "10%"}
{"Compound": "Cc1ccc(NC(=O)c2ccnc(N3CCN(C)CC3)c2)cc1-c1ccc(C(=O)NCC2CC2)cc1 [GW775604]", "Val": "9%"}
{"Compound": "O=C(c1ccc(-c2cc(-c3c[nH]nc3-c3ccccn3)ccn2)cc1)N1CCOCC1 [GW812171]", "Val": "7%"}

###

System: NEK11
Conditions: concentration: 1 μM, replicates: in singlicate; n = 1

{"Molecule": "Fc1ccc(-c2ncn(CCCN3CCOCC3)c2-c2cccnc2)cc1 [SB-211743]", "%Inh, %": 0}
{"Molecule": "Cc1c(Cn2c(C)nn3c(=O)cc(N4CCOC(C)C4)nc23)cccc1C(F)(F)F (stereo not drawn) [GSK2344444]", "%Inh, %": 0}
{"Molecule": "O=c1cc(N2CCOCC2)nc2n(Cc3cccc(F)c3)ccn12 [GSK2297430]", "%Inh, %": 0}
{"Molecule": "Cc1nnc(-c2ccc3occ(-c4ccc(C(C)O)cc4)c3c2)o1 (stereo not drawn)", "%Inh, %": 0}
{"Molecule": "CSc1ccc(-c2cc3ncnc(SCC(=O)O)c3s2)cc1", "%Inh, %": 0}
{"Molecule": "Cc1cccc(Cn2ccn3c(=O)cc(N4CCOCC4)nc23)c1 [GSK2297542]", "%Inh, %": 6}
{"Molecule": "Cn1cc(-c2ccc3c(c2)CCN3C(=O)Cc2ccccc2Cl)c2c(N)ncnc21 [GSK2608885]", "%Inh, %": 0}
{"Molecule": "COc1ccc(Nc2ncc(C#N)c(Nc3ccccc3C(N)=O)n2)cc1N1CCN(C)CC1.Cl [GSK1558669]", "%Inh, %": 97.5}
{"Molecule": "COc1cc(Nc2nccc(N3CCC(NC(=O)c4cccc(NC(C)=O)c4)C3)n2)cc(OC)c1OC (stereo not drawn) [GSK1379754]", "%Inh, %": 0}

###

Test system: CAMK4
Conditions: concentration: 1 μM, replicates: in singlicate; n = 1

{"Molecular string": "Cc1cn2c(=O)cc(N3CCOCC3)nc2n1Cc1cccc(Cl)c1Cl", "Units of measure": "%", "%Inh": 0}
{"Molecular string": "O=c1cc(N2CCOCC2)nc2n(Cc3cccc(C(F)(F)F)c3)ccn12", "Units of measure": "%", "%Inh": 0}
{"Molecular string": "Cc1cccc(-c2nc(-c3ccc(S(C)(=O)=O)cc3)sc2-c2ccncc2)c1", "Units of measure": "%", "%Inh": 0}
{"Molecular string": "O=C(Nc1n[nH]c2cc(-c3cccc(F)c3)ccc12)C1CC1", "Units of measure": "%", "%Inh": 0}
{"Molecular string": "N#Cc1ccc(-c2cc(-c3c[nH]nc3-c3ccccn3)ccn2)cc1", "Units of measure": "%", "%Inh": 0}

###

System: CDK8
Settings: concentration: 1 μM, replicates: in singlicate; n = 1

{"Molecular string": "O=c1cc(N2CCOCC2)nc2n(Cc3cccc(F)c3)ccn12", "%Inh (%)": 26}
{"Molecular string": "CSc1ccc(-c2cc3ncnc(SCC(=O)O)c3s2)cc1", "%Inh (%)": 0}
{"Molecular string": "COc1ccc(Nc2ncc(C#N)c(Nc3ccccc3C(N)=O)n2)cc1N1CCN(C)CC1.Cl", "%Inh (%)": 0}
{"Molecular string": "CC(=O)Nc1ccc(COc2ccc(Nc3ccnc4cc(-c5ccccn5)ccc34)cc2)cc1.Cl", "%Inh (%)": 8}
{"Molecular string": "COC(=O)Nc1nc2cc(Oc3ccc(NC(=O)Nc4cc(F)ccc4F)cc3)ccc2[nH]1.Cl", "%Inh (%)": 42}
{"Molecular string": "Cc1c2ccc(N(C)c3ccnc(Nc4cccc(S(N)(=O)=O)c4)n3)cc2nn1Cc1ccccc1.Cl.Cl", "%Inh (%)": 0}
{"Molecular string": "CNc1ncnc2[nH]ncc12", "%Inh (%)": 0}
{"Molecular string": "COc1ccc(S(=O)(=O)NC2CCN(c3cc(C)nc(Nc4cccc(C#N)c4)n3)CC2)cc1.O=C(O)C(F)(F)F", "%Inh (%)": 4}
{"Molecular string": "O=C(Nc1n[nH]c2cc(-c3cccc(F)c3)ccc12)C1CC1", "%Inh (%)": 0}

###

Listed below: %Inh values for each entry.
Test system: SGK
Conditions: concentration: 1 μM, replicates: in singlicate; n = 1
Endpoint: %Inh (%)

{"Molecule": "C[C@@H](Oc1cc(-n2cnc3ccc(NC(=O)NC(C)(C)C)cc32)sc1C(N)=O)c1ccccc1Cl [GSK346294]", "Endpoint": "%Inh", "Units of measure": "%", "Val": 0}
{"Molecule": "COc1cc(Nc2nccc(N3CCC(NC(=O)c4cccc(NC(C)=O)c4)C3)n2)cc(OC)c1OC (centres unmarked) [GSK1379754]", "Endpoint": "%Inh", "Units of measure": "%", "Val": 0}
{"Molecule": "Cl.Nc1ncnc2occ(-c3ccc(NC(=O)Nc4cc(C(F)(F)F)ccc4F)cc3)c12 [SB-707548]", "Endpoint": "%Inh", "Units of measure": "%", "Val": 0}
{"Molecule": "COc1ccc(Nc2nccc(N3CCC(NC(=O)Nc4cccc(C(C)=O)c4)C3)n2)cc1 (centres unmarked) [GSK1379731]", "Endpoint": "%Inh", "Units of measure": "%", "Val": 0}
{"Molecule": "COCCNC(=O)c1ccc(-c2cc(C(=O)NC3CC3)cc(F)c2C)cc1 [GW868318]", "Endpoint": "%Inh", "Units of measure": "%", "Val": 36}
{"Molecule": "Fc1ccc(-c2nn3c(OCC(F)(F)F)cccc3c2-c2ccncc2)cc1 [GW514784]", "Endpoint": "%Inh", "Units of measure": "%", "Val": 15}
{"Molecule": "c1ccc(-c2cc(-c3c[nH]nc3-c3ccccn3)ccn2)cc1 [GW576604]", "Endpoint": "%Inh", "Units of measure": "%", "Val": 0}
{"Molecule": "COC(=O)Nc1nc2cc(Oc3ccc(NC(=O)Nc4cc(F)ccc4F)cc3)ccc2[nH]1.Cl [GW701424]", "Endpoint": "%Inh", "Units of measure": "%", "Val": 2}

###

Tested on: ABL1-nonphosphorylated
Conditions: concentration: 1 μM, replicates: in singlicate; n = 1
Class criterion met: %Inh at least 7%. Class criterion not met: %Inh below 7%.

{"Molecule": "O=C(NCCNc1ccnc(Nc2ccc(F)cc2)n1)c1cc2ccccc2s1", "Label": "criterion not met"}
{"Molecule": "CC(C)(C)n1cnc2c(N)ncnc21", "Label": "criterion met"}
{"Molecule": "Cc1cccc(-c2nc(Nc3ccc4ncsc4c3)c3ccccc3n2)n1", "Label": "criterion not met"}
{"Molecule": "Fc1ccc(-c2ncn(CCCN3CCOCC3)c2-c2ccccn2)cc1", "Label": "criterion met"}
{"Molecule": "COc1ccc(Nc2nccc(N3CCC(NC(=O)Nc4cccc(C(C)=O)c4)C3)n2)cc1 (stereo not drawn)", "Label": "criterion not met"}
{"Molecule": "CCc1ccnc(/C=C/c2n[nH]c3cc(Sc4ccccc4C(=O)NC)ccc23)c1", "Label": "criterion met"}
{"Molecule": "O=C(NCCCN1CCOCC1)c1cccc(Nc2nccc(Nc3ccc(Oc4ccccc4)cc3)n2)c1", "Label": "criterion met"}
{"Molecule": "O=C1NC(=O)C(N2CCc3ccccc32)=C1c1cccc(Cl)c1", "Label": "criterion met"}
